ASSAY_COMMENT: P. aeruginosa biofilm formation inhibitors, primary screen, strain PAO1, LB-PBS medium, absorbance 600 nm (AID 1176); also: test concentration not given here
MEASUREMENT_CONTEXT: P. aeruginosa PAO1 growth/biofilm, A600, 12 h; higher = more signal
METRIC: z-score
Quick one: just the number, no unit, thanks!

A selection of reference data follows.
COMPOUND: O=C1NC(=O)C2C1C=CC(C(O)c1cc(C(F)(F)F)cc(C(F)(F)F)c1)N2Nc1ccccn1 (configuration not stated)
z-score: 1.36

COMPOUND: COC(=O)[C@@]1(CCC(=O)OC(C)(C)C)N=C(c2ccc(OCCCO)cc2)O[C@H]1c1ccccc1N=[N+]=[N-]
z-score: 2.78

COMPOUND: C=C[C@H](CO)NS(=O)(=O)c1ccc(Br)cc1
z-score: -0.621

COMPOUND: COCCOC(=O)N1C(=O)[C@@]2(c3ccccc31)[C@H](c1ccc(O)cc1)N1[C@H](c3ccccc3)[C@H](c3ccccc3)OC(=O)[C@H]1[C@@H]2C(=O)Nc1nc2ccccc2s1
z-score: 0.995

# return recorded z-score for entry CO[C@H]1O[C@H](CO)[C@@H](OC(=O)Nc2ccc(Oc3ccccc3)cc2)[C@H](OC(=O)Nc2ccc3c(c2)OCO3)[C@H]1OC(=O)Nc1ccc2c(c1)OCO2
2.07

# return recorded z-score for entry C=C(CCCC)C(=O)CC[C@@H](OC(=O)c1ccccc1-c1ccccc1C(=O)O)c1ccc(OCCO)cc1
0.956

# return recorded z-score for entry C[N+](C)(C)CCCCNC(=O)[C@H]1C[C@H]2C(=O)N3CCC[C@H]3C(=O)N2[C@H]1c1cccc(OCCO)c1
0.628
